Experiment: Assay C: metabolic stability in human liver microsomes (Human MST)
Type: in vitro ADME
Settings: pH 7.6; pooled human liver microsomes, 1 μM compound, 37° C.; read-out: Human MST t1/2
Items are presented alongside their recorded half-life at 1 μM.
Give the value in h but do not write h after it.

For orientation, consider the following solved cases.
1) CCN(C(=O)c1cc(F)cnc1-n1nccn1)[C@@H](C)CNc1ccc(C(F)(F)F)cn1 [Example 12]    0.733
2) CCN(C(=O)c1cnc(C)nc1-c1ccccc1)[C@@H](C)CNc1ncc(Br)cn1 [Example 13]    1.27
3) C[C@@H](CNc1ncc(C(F)(F)F)cn1)N(CC1CC1)C(=O)c1cccc(F)c1-n1nccn1 [Example 1]    1.22

For the compound shown here, CCN(C(=O)c1cc(Cl)ccc1-n1nccn1)[C@@H](C)CNc1cnc(C(F)(F)F)cn1 [Example 10] , give the reported half-life at 1 μM.
2.17

CCN(C(=O)c1cccc(F)c1-n1nccn1)[C@@H](C)CNc1ncc(C(F)(F)F)cc1C#N [Example 7] ?
1.48

CCN(C(=O)c1cc(Cl)ccc1-n1nccn1)[C@@H](C)CNc1ncc(C(F)(F)F)cn1 [Example 3] ?
2.17
